- ASSAYED TARGET: DDR2 (Homo sapiens)
- Construct: purchased Eurofins DiscoverX KINOMEscan (scanTK)
- Sequence (Q16832 22-855): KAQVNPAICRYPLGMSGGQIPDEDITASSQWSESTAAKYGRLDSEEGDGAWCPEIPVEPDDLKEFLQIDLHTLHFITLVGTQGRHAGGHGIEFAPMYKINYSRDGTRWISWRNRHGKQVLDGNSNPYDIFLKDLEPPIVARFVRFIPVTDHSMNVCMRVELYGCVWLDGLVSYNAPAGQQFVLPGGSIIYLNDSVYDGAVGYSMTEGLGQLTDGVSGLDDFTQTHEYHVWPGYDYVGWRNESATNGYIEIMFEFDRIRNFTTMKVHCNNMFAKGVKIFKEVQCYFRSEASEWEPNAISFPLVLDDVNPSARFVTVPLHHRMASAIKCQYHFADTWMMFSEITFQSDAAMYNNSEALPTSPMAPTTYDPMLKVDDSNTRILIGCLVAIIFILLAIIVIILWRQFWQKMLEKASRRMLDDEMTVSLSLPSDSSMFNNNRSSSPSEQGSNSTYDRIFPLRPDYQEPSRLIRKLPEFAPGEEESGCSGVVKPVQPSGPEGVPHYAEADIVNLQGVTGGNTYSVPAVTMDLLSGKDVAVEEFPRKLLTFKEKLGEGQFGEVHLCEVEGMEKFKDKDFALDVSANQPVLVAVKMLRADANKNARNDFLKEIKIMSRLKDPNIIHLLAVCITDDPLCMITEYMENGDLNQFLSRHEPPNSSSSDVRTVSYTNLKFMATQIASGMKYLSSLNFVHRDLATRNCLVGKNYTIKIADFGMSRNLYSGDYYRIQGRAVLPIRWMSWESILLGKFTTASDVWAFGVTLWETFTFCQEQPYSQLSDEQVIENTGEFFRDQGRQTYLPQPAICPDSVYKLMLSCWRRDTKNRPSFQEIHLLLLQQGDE
- TEST PROTOCOL: KINOMEscan ScanTK
- Assay type: binding
- RECORDED CONDITIONS: @1000nM; DDR2
PROPERTY LABEL: difference in %Control from reference compound Ib at 1 µM (%)
Respond with the bare value in %.

Examples with their reported difference in %Control from reference compound Ib at 1 µM follow.
**Q:** Find difference in %Control from reference compound Ib at 1 µM (DDR2 (Homo sapiens)) for the entry CCOC(=O)c1cnc(S(C)(=O)=O)nc1N1CCC[C@@H](n2nc(-c3ccc(Oc4ccccc4)cc3)c3c(N)ncnc32)C1
**A:** -22

**Q:** difference in %Control from reference compound Ib at 1 µM of CNC(=O)c1cnc(S(C)(=O)=O)nc1N1CCCC(n2nc(-c3ccc(Oc4ccccc4)cc3)c3c(N)ncnc32)C1 (stereo not shown) on DDR2 (Homo sapiens)?
**A:** -15

---
**Q:** Please tell me: difference in %Control from reference compound Ib at 1 µM of COC(=O)c1cnc(S(C)(=O)=O)nc1N1CCCC(n2nc(-c3ccc(Oc4ccccc4)cc3)c3c(N)ncnc32)C1 (stereo not shown) , system DDR2 (Homo sapiens)?
**A:** -6

**Q:** Request body: readout difference in %Control from reference compound Ib at 1 µM, system DDR2 (Homo sapiens), query Cc1cnc(S(C)(=O)=O)nc1N1CCCC(n2nc(-c3ccc(Oc4ccccc4)cc3)c3c(N)ncnc32)C1 (stereo not shown) . Return the value.
**A:** -5
